SYSTEM: PDE1A (Homo sapiens, UniProt P54750)
Sequence (P54750 whole entry): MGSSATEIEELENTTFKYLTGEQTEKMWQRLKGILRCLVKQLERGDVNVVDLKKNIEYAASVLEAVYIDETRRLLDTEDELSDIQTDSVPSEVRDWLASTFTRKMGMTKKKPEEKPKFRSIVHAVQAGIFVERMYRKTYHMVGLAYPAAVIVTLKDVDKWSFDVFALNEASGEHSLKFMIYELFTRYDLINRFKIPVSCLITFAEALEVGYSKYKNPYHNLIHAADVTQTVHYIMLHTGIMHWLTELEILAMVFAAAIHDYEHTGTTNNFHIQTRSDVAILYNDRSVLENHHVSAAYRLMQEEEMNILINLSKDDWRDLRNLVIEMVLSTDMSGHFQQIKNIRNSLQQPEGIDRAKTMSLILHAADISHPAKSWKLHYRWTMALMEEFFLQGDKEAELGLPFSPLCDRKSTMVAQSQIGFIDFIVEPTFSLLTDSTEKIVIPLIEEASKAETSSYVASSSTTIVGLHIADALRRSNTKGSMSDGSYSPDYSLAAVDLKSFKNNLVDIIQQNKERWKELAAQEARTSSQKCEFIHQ
ASSAY_INFO: PDE1 inhibition assay (SPA), PDE1A
Type: biochemical
APPLIED_CONDITIONS: concentration required to reach 50% inhibition of the enzyme; 15 nM tritium labelled cAMP; read-out: PDE1A inhibition (nM or %): IC50
MEASURED_PROPERTY: IC50 (nM)

CCCc1nnc2c(=O)n(Cc3cccc(F)c3)cc(Br)n12 = 149
O=c1c2nnc(C3CCOCC3)n2cc(Cc2ccccc2)n1Cc1cccc(F)c1 = 32
CCCc1nnc2c(=O)n(Cc3ccc(OC)cc3)c(C)cn12 = 66
O=c1c2nnc(C3CCOCC3)n2cc(Cc2ccc(F)cc2)n1CC1CCCC1 = 142
O=c1c2nnc(C3CCOC3)n2ccn1Cc1ccc(Cl)cc1 (stereo not shown) = 500

[I] CCc1nnc2c(=O)n(Cc3ccc(Cl)cc3)ccn12
[II] O=c1c2nnc(C3CCOCC3)n2cc(Cc2cccc(F)c2)n1CC1CCCC1
[III] Cc1ccc(Cc2cn3c(C4CCOCC4)nnc3c(=O)n2CC2CCCC2)cc1
[IV] O=c1c2nnc(C3CCOCC3)n2cc(Br)n1Cc1cccc(F)c1
Request: Please list these in order of increasing IC50. Thank you! Answer by naming the labels in the order asked.
Result: III, IV, II, I
(III: 21 nM, IV: 114 nM, II: 369 nM, I: 1000 nM)
